# Test system: rat uterus preparation
# Procedure Text: Uterus relaxing activity in vitro
# Experimental Parameters: Rattus norvegicus, contracting agent serotonine; 7 preparations; read-out: CE50 (effective concentration 50, inhibiting by 50% the control contraction)
Test Readout: EC50

Compound	Test Readout	Assay Value
CC(C)(C)NCC(O)c1ccc(O)c(CO)c1 (centres unmarked) [Salbutamol, reference compound]	EC50	8.3 nM

# input for lookup
query: State its EC50 for this compound: COc1cc(C(O)CNC(C)CCn2cnc3ccccc32)ccc1O (centres unmarked) [Compound A, sulphate, dihydrate]
result: 2.4 nM
